target: HER2 expressed on the surface of cells (human, UniProt P04626 23-1255)
testDescription: cell-based or functional assay
parameter: growth inhibition span (percentage of cells killed), BT474 cells + EGF
Respond with the figure and its unit, in that order.

Study these solved cases before continuing.
binder	result
Variant 12471 (antibody, human IgG1, kappa, name in Kabat numbering, V domains shown, Kabat numbering; also called v12471; FSA version of v9996) VH: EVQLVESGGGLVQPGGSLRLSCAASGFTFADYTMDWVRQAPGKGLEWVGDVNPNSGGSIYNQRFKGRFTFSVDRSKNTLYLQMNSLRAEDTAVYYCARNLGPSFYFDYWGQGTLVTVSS VL: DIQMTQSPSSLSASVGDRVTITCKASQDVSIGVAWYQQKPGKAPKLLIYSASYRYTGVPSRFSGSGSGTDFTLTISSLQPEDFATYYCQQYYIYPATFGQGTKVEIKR	27%
Variant 14021 (antibody, name in Kabat numbering, V domains shown, also called v14021) VH: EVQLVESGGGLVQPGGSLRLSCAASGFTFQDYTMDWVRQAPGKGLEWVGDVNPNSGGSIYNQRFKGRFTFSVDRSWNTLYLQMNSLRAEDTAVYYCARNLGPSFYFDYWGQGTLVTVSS VL: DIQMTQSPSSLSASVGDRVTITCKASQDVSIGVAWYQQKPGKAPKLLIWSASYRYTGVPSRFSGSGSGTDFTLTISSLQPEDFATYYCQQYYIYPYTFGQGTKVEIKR	44%
Variant 14019 (antibody, name in Kabat numbering, V domains shown, also called v14019) VH: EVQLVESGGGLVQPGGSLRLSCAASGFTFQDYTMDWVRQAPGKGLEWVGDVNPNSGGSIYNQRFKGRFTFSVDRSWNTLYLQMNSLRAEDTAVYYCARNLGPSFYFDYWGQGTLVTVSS VL: DIQMTQSPSSLSASVGDRVTITCKASQDVSIGVAWYQQKPGKAPKLLIYSASYRYTGVPSRFSGSGSGTDFTLTISSLQPEDFATYYCQQYYIYPYTFGQGTKVEIKR	33%

I have this binder here, Variant 14020 (antibody, name in Kabat numbering, V domains shown, also called v14020) VH: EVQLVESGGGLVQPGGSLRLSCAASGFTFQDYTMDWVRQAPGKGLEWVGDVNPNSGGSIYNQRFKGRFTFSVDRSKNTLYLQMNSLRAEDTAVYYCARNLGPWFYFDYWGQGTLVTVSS VL: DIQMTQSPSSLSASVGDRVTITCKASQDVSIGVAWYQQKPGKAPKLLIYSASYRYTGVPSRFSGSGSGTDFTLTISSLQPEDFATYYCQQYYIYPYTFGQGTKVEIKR , and I need its recorded growth inhibition span (percentage of cells killed), BT474 cells + EGF.
37%

I have this binder here, Variant 14022 (antibody, name in Kabat numbering, V domains shown, also called v14022) VH: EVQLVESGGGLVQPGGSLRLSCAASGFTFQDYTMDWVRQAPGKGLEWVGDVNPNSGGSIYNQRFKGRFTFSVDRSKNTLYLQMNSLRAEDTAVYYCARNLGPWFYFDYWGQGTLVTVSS VL: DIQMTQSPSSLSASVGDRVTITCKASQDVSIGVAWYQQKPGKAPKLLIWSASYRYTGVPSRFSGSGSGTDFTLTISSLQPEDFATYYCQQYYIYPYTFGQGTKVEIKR , and I need its recorded growth inhibition span (percentage of cells killed), BT474 cells + EGF.
35%

I have this binder here, Variant 14023 (antibody, name in Kabat numbering, V domains shown, also called v14023) VH: EVQLVESGGGLVQPGGSLRLSCAASGFTFQDYTMDWVRQAPGKGLEWVGDVNPNSGGSIYNQRFKGRFTFSVDRSWNTLYLQMNSLRAEDTAVYYCARNLGPWFYFDYWGQGTLVTVSS VL: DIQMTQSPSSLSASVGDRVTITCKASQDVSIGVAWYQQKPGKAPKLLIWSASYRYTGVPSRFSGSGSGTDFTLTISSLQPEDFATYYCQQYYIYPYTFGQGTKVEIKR , and I need its recorded growth inhibition span (percentage of cells killed), BT474 cells + EGF.
45%

I have this binder here, Variant 14018 (antibody, name in Kabat numbering, V domains shown, also called v14018) VH: EVQLVESGGGLVQPGGSLRLSCAASGFTFTDYTMDWVRQAPGKGLEWVGDVNPNSGGSIYNQRFKGRFTFSVDRSWNTLYLQMNSLRAEDTAVYYCARNLGPSFYFDYWGQGTLVTVSS VL: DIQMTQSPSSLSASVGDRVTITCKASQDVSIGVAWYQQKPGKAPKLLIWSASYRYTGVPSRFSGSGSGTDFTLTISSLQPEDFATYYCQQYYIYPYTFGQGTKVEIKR , and I need its recorded growth inhibition span (percentage of cells killed), BT474 cells + EGF.
33%

Origin of measurements: patent US20180273635A1
